Hello, the source for this data is ChEMBL document CHEMBL1153914, in case you need it.

target: D(1A) dopamine receptor (Homo sapiens, UniProt P21728); experiment: Displacement of [3H]SCH23390 from human dopamine D1 receptor at 10 uM
Sequence (P21728 whole entry): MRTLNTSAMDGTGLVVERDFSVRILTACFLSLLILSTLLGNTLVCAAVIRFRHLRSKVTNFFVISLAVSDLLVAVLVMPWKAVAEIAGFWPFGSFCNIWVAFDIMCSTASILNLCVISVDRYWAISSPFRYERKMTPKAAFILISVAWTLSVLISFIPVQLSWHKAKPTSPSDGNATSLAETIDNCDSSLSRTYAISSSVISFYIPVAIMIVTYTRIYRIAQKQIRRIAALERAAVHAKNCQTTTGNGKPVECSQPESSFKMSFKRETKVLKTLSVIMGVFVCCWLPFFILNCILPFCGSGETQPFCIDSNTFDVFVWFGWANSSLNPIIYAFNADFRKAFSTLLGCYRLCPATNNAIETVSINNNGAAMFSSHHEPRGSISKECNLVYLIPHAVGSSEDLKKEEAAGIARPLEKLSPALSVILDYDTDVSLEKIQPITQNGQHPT
assay-readout: Activity (%)
// units = %; emit number, no label

> print(dat)
                  compound.structure.string  assay.readout  unit.abbreviation  observed
1  COc1ccccc1N1CCN(CCCCN2CCc3ccccc3C2=O)CC1       Activity                  %      61.1
2   COc1ccccc1N1CCN(CCCN2CCc3ccccc3C2=O)CC1       Activity                  %      59.5
3  COc1ccc(N2CCN(CCCN3CCc4ccccc4C3=O)CC2)cc1       Activity                  %      43.5

Param item = `O=C1c2ccccc2CCCN1CCCN1CCN(c2ccccn2)CC1` ; retrieve measured Activity.
57

Param item = `COc1ccc(N2CCN(CCCN3CCCCc4ccccc4C3=O)CC2)cc1` ; retrieve measured Activity.
58.9

Param item = `O=C1c2ccccc2CCCN1CCCN1CCN(c2ncccn2)CC1` ; retrieve measured Activity.
46

---

target: D(3) dopamine receptor (Homo sapiens, UniProt P35462); test: Displacement of [3H]spiperone from human dopamine D3 receptor; conditions: read-out: pKi (converted)
Sequence (P35462 whole entry): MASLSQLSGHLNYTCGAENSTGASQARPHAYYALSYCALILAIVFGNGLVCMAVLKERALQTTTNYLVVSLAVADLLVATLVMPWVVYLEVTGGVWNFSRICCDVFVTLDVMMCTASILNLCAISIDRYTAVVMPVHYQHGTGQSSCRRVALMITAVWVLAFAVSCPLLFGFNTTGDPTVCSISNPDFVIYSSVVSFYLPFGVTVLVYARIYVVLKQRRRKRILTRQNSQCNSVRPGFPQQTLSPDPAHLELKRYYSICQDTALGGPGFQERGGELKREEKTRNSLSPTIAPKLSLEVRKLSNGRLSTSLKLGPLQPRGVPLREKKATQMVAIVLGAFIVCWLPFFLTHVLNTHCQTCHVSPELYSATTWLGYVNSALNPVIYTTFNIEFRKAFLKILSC
With a cut-off of 200 nM, any Ki strictly below it is called Satisfied; any Ki meeting it or above is called Not satisfied.

Consider the following illustrative entries.
> print(dat)
                  compound.structure.string    label.value
1  O=C1c2ccccc2CCN1CCCN1CCN(c2cccc(C(F)(F)F)c2)CC1  Not satisfied
2  COc1ccc(N2CCN(CCCN3CCCc4ccccc4C3=O)CC2)cc1  Not satisfied
3     O=C1c2ccccc2CCN1CCCN1CCN(c2ccccn2)CC1  Not satisfied
4  COc1ccc(N2CCN(CCCN3CCc4ccccc4C3=O)CC2)cc1  Not satisfied
5  COc1ccccc1N1CCN(CCCN2CCCc3ccccc3C2=O)CC1  Not satisfied

Dear reviewer, please state whether `O=C1c2ccccc2CCCN1CCCCN1CCN(c2cccc(Cl)c2Cl)CC1` has Ki strictly beneath 200 nM.
Satisfied

---

target: D(2) dopamine receptor (Homo sapiens, UniProt P14416); assay: Displacement of [3H]spiperone from human dopamine D2 receptor
Sequence (P14416 whole entry): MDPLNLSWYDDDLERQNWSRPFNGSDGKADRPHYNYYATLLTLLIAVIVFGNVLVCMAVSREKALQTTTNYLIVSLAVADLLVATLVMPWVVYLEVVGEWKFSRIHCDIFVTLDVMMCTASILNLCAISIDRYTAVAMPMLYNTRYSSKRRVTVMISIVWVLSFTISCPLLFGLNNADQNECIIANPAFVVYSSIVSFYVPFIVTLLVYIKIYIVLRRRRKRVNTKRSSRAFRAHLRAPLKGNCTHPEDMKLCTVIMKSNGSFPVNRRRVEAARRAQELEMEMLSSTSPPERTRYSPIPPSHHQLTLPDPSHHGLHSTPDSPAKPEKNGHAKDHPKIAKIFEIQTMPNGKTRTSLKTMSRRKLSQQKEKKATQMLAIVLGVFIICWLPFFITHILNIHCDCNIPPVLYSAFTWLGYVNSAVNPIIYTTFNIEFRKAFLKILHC
Catalogue of compounds with associated log10 Ki
Answers are given as log10 of Ki in nM.

> print(dat)
                  compound.structure.string  observed
1  O=C1c2ccccc2CCN1CCCCN1CCN(c2ccccc2Cl)CC1      1.55
2  COc1ccccc1N1CCN(CCCN2CCCc3ccccc3C2=O)CC1      2.90
3  COc1ccccc1N1CCN(CCCCN2CCCc3ccccc3C2=O)CC1      0.56
4  COc1ccccc1N1CCN(CCCCCN2CCc3ccccc3C2=O)CC1      1.31

Param item = `O=C1c2ccccc2CCCN1CCCCN1CCN(c2cccc(Cl)c2Cl)CC1` ; retrieve measured log10 Ki.
1.56

Param item = `COc1cccc(N2CCN(CCCCN3CCc4ccccc4C3=O)CC2)c1` ; retrieve measured log10 Ki.
2.20

---

biological target: D(3) dopamine receptor (Homo sapiens, UniProt P35462); test: Displacement of [3H]spiperone from human dopamine D3 receptor; settings: read-out: Ki
assay-readout: Ki (nM)
// units = nM; emit number, no label

Param item = `COc1ccc(N2CCN(CCCCN3CCCc4ccccc4C3=O)CC2)cc1` ; retrieve measured Ki.
40

---

molecular target: D(2) dopamine receptor (Homo sapiens); assay: Displacement of [3H]spiperone from human dopamine D2 receptor at 10 uM
assay-readout: Activity (%)
// units = %; emit number, no label

> print(dat)
                  compound.structure.string  unit.abbreviation  observed
1    O=C1c2ccccc2CCCN1CCCN1CCN(c2ccccn2)CC1                  %      26.3
2  COc1ccc(N2CCN(CCCN3CCCCc4ccccc4C3=O)CC2)cc1                  %      13.1
3  COc1ccc(N2CCN(CCCN3CCc4ccccc4C3=O)CC2)cc1                  %      1.35
4  COc1ccc(N2CCN(CCCCN3CCCc4ccccc4C3=O)CC2)cc1                  %        59
5    O=C1c2ccccc2CCN1CCCCN1CCN(c2ncccn2)CC1                  %      60.5

Param item = `O=C1c2ccccc2CCN1CCCCN1CCN(c2ccccn2)CC1` ; retrieve measured Activity.
57.5

---

biological target: D(2) dopamine receptor (Homo sapiens); test: Displacement of [3H]spiperone from human dopamine D2 receptor at 10 uM
Category key, based on recorded Activity: label 0: < 10%; label 1: ≥ 10% and < 50%; label 2: ≥ 50%

> print(dat)
                compound.structure.string  label.value
1   O=C1c2ccccc2CCN1CCCN1CCN(c2ccccn2)CC1      label 1
2  O=C1c2ccccc2CCCN1CCCN1CCN(c2ncccn2)CC1      label 1

Class (by measured Activity) for `O=C1c2ccccc2CCN1CCCN1CCN(c2ncccn2)CC1`
label 0

Class (by measured Activity) for `O=C1c2ccccc2CCN1CCCN1CCN(c2cccc(Cl)c2Cl)CC1`
label 2

Class (by measured Activity) for `O=C1c2ccccc2CCCN1CCCN1CCN(c2cccc(C(F)(F)F)c2)CC1`
label 2

Class (by measured Activity) for `O=C1c2ccccc2CCN1CCCN1CCN(c2cccc(C(F)(F)F)c2)CC1`
label 2

Class (by measured Activity) for `COc1ccc(N2CCN(CCCCN3CCc4ccccc4C3=O)CC2)cc1`
label 1

Class (by measured Activity) for `COc1ccc(N2CCN(CCCN3CCCc4ccccc4C3=O)CC2)cc1`
label 0
